system: HCT-15 colon; assay: NCI-60 one-dose screen, 48 h (100 = growth as untreated, 0 = no growth, -100 = all killed); conditions: 10 µM unless noted
This is part of a sample that, as a whole, favours compounds with a hit. Of some 83,000 tested, about 20% had one in any assay.
Assign labels as follows, please: Criterion met for growth below 60%; Criterion not met for growth equal to or exceeding 60%.

Worked examples follow.
COMPOUND	ASSAYED_TARGET	CAT
N#Cc1c(NC(=O)c2cccs2)[n+]([O-])c2ccc(Cl)cc2[n+]1[O-]	HCT-15 colon	Criterion not met
FC(F)(F)c1[nH]ncc1-c1nc2c(N3CCCCC3)cc3[nH]ncc3c2c2c1CCCC2	HCT-15 colon	Criterion met
CCOC(=O)/C=C/c1c(C)[nH]c(=O)[nH]c1=O	HCT-15 colon	Criterion met
COc1cc(N2C(=O)[C@H](c3ccccc3)C2c2ccc(SC)cc2)cc(OC)c1OC (stereo partly specified)	HCT-15 colon	Criterion met

Take the compound Oc1c(CN2CCCC2)cc(COCc2ccccc2)c2cccnc12 and say whether its growth is less than 60%. Criterion met

Please let me know if CC(C)CCC[C@@H](C)C1CCC2C3CCC4=C/C(=N/OCCN(C)C)CC[C@]4(C)C3CC[C@@]21C (stereo partly specified) shows growth below 60%. Criterion not met

Problem: For the compound Cc1cscc(C)c1=S , is growth under 60%? Criterion met

Please indicate whether the reported growth of OC(c1ccccc1)(c1ccccc1)c1ccccc1-c1ccccc1 is strictly below 60%. Criterion not met

Find out if reported growth for CC(C)c1ccc(NC(=O)Nc2ccc(NC(=O)c3ccccc3N)cc2)cc1 is less than 60% Criterion met

Report whether reported growth is lower than 60% (strictly) for CCOC(=O)C1CCN(c2ccc(N3C[C@@H](CNCc4ccc(C(=N)N)cc4)OC3=O)cc2)CC1 Criterion not met

* * *

tested on: NCI-H460 lung; experiment: NCI-60 one-dose screen, 48 h; conditions: 10 µM unless noted
The panel holds about 83,000 compounds, 20% with a hit somewhere; the sample as a whole holds those more often. Activity calls are given as the source filed them. Rule for the calls: active = growth percent below 10; inactive = the rest.
# valid calls are Y for active, N for inactive; nothing else

MOLECULE	CAT
NC(=O)OCCn1cc(-c2nc(-c3c[nH]c4ncccc34)cs2)c2ccccc21	N
O=C1Nc2ccccc2C2c3cccn3-c3ccccc3N12 (stereo unspecified)	N
COc1cc2cc(NCc3ccc(OC(F)F)cc3)nc(C)c2cc1OC	N
CC(C)CCSc1nc(Nc2ccccc2)c(C#N)c(-c2ccccc2)n1	N
COc1ccc(Cl)cc1Nc1nc(C(F)(F)F)ccc1C(=O)N/N=C/c1ccccc1Cl	Y

Dear all, I need the recorded test outcome for O=C(Cn1nnc([N+](=O)[O-])n1)c1ccccc1 , thank you. N

Just curious, what result did CCOC(=O)C(=Cc1cccc(C#N)c1)C(=O)OCC get here? N

Please share the test call associated with COc1ccc(OC)c(Nc2nnc(-c3ccc(Cl)cc3)o2)c1 . N

Each molecule tested received a call. Report the one for Nc1nc(C(=O)N/N=C/c2ccc(N3CCOCC3)cc2)nn1-c1ccc(S(N)(=O)=O)cc1 . N

In this assay, the call recorded for Cc1ccc(O)c(NC(=O)c2ccc(CNc3ccnc(C(F)(F)F)c3)cc2)c1 was what? N

Could you please tell me the result logged for CCCCSCC(=O)c1ccccc1 in this assay? N

Attribution: PubChem BioAssay (NCI)
